- testSystem: T1, mfNPR1-mFc:hANP complex (monkey; human, UniProt P01160 124-151)
- T1 construct: also called monkey NPR1 complexed to ANP
- methodDescription: SPR, mAb captured, 25C
property: kon (M⁻¹ s⁻¹)
State the answer as a number, implicitly in M⁻¹ s⁻¹.

Reported kon, binder mAb22805 (antibody, human IgG4, V domains shown) VH: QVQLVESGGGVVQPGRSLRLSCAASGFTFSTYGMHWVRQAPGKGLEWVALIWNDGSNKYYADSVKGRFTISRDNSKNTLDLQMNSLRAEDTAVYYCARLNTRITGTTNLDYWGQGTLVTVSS VL: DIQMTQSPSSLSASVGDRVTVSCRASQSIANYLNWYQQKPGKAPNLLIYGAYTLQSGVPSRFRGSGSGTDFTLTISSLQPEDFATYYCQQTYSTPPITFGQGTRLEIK : ____
48400

Another binder: mAb25497 (antibody, human IgG4, V domains shown) VH: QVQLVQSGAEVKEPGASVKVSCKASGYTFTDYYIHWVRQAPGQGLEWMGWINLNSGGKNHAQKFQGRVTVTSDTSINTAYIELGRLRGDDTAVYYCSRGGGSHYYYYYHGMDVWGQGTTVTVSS VL: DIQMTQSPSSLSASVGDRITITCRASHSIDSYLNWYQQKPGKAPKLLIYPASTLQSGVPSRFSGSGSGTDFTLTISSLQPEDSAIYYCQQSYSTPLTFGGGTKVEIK
156000

Another binder: mAb22035 (antibody, human IgG4, V domains shown) VH: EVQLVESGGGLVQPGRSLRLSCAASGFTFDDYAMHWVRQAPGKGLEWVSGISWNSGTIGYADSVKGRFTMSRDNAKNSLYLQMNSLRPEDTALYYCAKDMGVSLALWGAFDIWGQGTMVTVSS VL: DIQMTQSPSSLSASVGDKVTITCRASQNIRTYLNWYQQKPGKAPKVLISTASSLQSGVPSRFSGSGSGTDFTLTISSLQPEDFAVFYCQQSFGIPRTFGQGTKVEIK
189000

Another binder: mAb25502 (antibody, human IgG4, V domains shown) VH: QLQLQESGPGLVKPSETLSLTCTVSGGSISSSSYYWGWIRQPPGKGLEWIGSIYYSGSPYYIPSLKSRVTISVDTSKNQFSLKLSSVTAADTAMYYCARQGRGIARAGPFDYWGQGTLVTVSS VL: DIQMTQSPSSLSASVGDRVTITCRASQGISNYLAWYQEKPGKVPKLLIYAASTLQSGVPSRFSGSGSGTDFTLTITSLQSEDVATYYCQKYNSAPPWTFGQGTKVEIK
74000

Sourced from patent US20240309103A1
